System: wild oat
Procedure Summary: Test C preemergence/postemergence greenhouse plant response rating 0 to 100
Format: in vivo, Avena fatua
Experimental Context: POSTEMERGENCE, 62 g/ha, 0 to 100 scale
Outcome Measure: Plant response rating, Wild oat

Reference set (4 entries):
* CCC(C)Oc1cc(-c2nn3c(c2Cl)CCCC3)c(F)cc1Cl (centres unmarked) [Compound 48] | 40
* C#CCN1C(=O)COc2cc(F)c(-c3nn4c(c3Cl)CCCC4)cc21 [Compound 34] | 30
* C=C(Cl)COc1cc(-c2nn3c(c2Cl)CCCC3)c(F)cc1Cl [Compound 40] | 30
* CC(C)N1C(=O)COc2cc(F)c(-c3nn4c(c3Cl)CCCC4)cc21 [Compound 31] | 50

Please report Plant response rating, Wild oat for every entry that follows.
1. C#CC(C)Oc1cc(-c2nn3c(c2Br)CCCC3)c(F)cc1Cl (centres unmarked) [Compound 66]
2. CC(C)Oc1cc(-c2nn3c(c2Br)CCCC3)c(F)cc1Cl [Compound 38]
3. COC(=O)C(C)Oc1cc(-c2nn3c(c2Cl)CCCC3)c(F)cc1Cl (centres unmarked) [Compound 28]

Response given:
1. 50
2. 50
3. 50

Challenge: Determine from records and report Plant response rating, Wild oat for C#CCN1C(=O)COc2cc(F)c(-c3nn4c(c3Br)CCCC4)cc21 [Compound 56]
Response given: 60

###

System: blackgrass
Procedure Summary: Test B preemergence/postemergence greenhouse plant response rating 0 to 10
Assay type: in vivo, Alopecurus myosuroides
Experimental Context: PREEMERGENCE, Rate 10 g/ha; 0 to 10 scale
What Plant response rating, Blackgrass was measured for each of the following?
Numbers only.

• C#CCN1C(=O)COc2cc(F)c(-c3nn4c(c3Br)CCCC4)cc21 = 3
• CC(C#N)Oc1cc(-c2nn3c(c2Cl)CCCC3)c(F)cc1Cl (centres unmarked) = 0
• CC(C)N1C(=O)COc2cc(F)c(-c3nn4c(c3Cl)CCCC4)cc21 = 3
• COCCN1C(=O)COc2cc(F)c(-c3nn4c(c3Cl)CCCC4)cc21 = 4

Attention now shifts to the item below.
Challenge: Report Plant response rating, Blackgrass from blackgrass testing of CCCN1C(=O)COc2cc(F)c(-c3nn4c(c3Cl)CCCC4)cc21
Response given: 5

###

For each entry below, report its Plant response rating, Velvetleaf value.
Tested on: velvetleaf
Procedure Summary: Test B preemergence/postemergence greenhouse plant response rating 0 to 10
Assay type: in vivo, Abutilon theophrasti
Experimental Context: POSTEMERGENCE, Rate 50 g/ha; 0 to 10 scale
One number for each entry.

Some compounds with known Plant response rating, Velvetleaf results, for comparison:
- CCOC(=O)COc1cc(-c2nn3c(c2Cl)CCCC3)c(Cl)cc1Cl: 6
- CCS(=O)(=O)Oc1cc(-c2nn3c(c2Cl)CCCC3)c(F)cc1Cl: 8
- CC(C)OC(=O)COc1cc(-c2nn3c(c2Cl)CCCC3)c(F)cc1Cl: 9
- O=C1COc2cc(F)c(-c3nn4c(c3Br)CCCC4)cc2N1: 9
- CCOC(=O)COc1cc(-c2nn3c(c2Cl)CCCC3)c(F)cc1Cl: 10
- COCCN1C(=O)COc2cc(F)c(-c3nn4c(c3Cl)CCCC4)cc21: 10
- Clc1ccc(-c2nc3n(c2Cl)CCC=C3)c(Cl)c1: 3
- CCN1C(=O)COc2cc(F)c(-c3nn4c(c3Cl)CCCC4)cc21: 9
- CCCN1C(=O)COc2cc(F)c(-c3nn4c(c3Br)CCCC4)cc21: 10
- CCC(=O)Oc1cc(-c2nn3c(c2Cl)CCCC3)c(F)cc1Cl: 8

Value sought for every listed compound: Plant response rating, Velvetleaf.
1. FCCCOc1cc(-c2nn3c(c2Cl)CCCC3)c(F)cc1Cl
2. CCOCOc1cc(-c2nn3c(c2Cl)CCCC3)c(F)cc1Cl
3. CC(C)Oc1cc(-c2nn3c(c2Cl)CCCC3)c(F)cc1Cl
4. COCOc1cc(-c2nn3c(c2Br)CCCC3)c(F)cc1Cl
5. C=CCN1C(=O)COc2cc(F)c(-c3nn4c(c3Cl)CCCC4)cc21
6. Clc1cc(Cl)c(-c2nn3c(c2Cl)CCCC3)cc1OCC1CC1

Response given:
1: 8; 2: 8; 3: 10; 4: 10; 5: 9; 6: 10
